Measured IC50, listed per entry for reference.
Test system: HTT mRNA
Assay: RT-qPCR splicing assay, HTT canonical (CJ) and alternative (AJ) junction mRNA
Format: cell-based, human
Conditions: Homo sapiens, 24 h, Table 3A; A673 or K562 cells, 24 h treatment; read-out: HTT CJ (IC50, decrease in CJ mRNA)

Cc1nnc(-c2cc(O)c(-c3ccc(N4CC[C@@H](NC5CCC5)C4)nn3)cc2F)s1 ... 100 to 1000 nM

IC50 of COc1cc(-c2ccc(-c3ccc(N4CCC(NC(C)(C)C)C4=O)nn3)c(O)c2)cnn1 (centres unmarked) on HTT mRNA?
1000 to 10000 nM

IC50 of Oc1cc(-c2ccnnc2)ccc1-c1ccc(N2CCC(NC3CCC3)C2)nn1 (centres unmarked) on HTT mRNA?
1000 to 10000 nM

IC50 of "Cc1ncc(-c2cc(O)c(-c3ccc(N4CC[C@@H](N(C)C5CCC5)C4)nn3)cc2F)s1" on HTT mRNA?
< 100 nM

IC50 of "Cc1ncc(-c2cc(O)c(-c3ccc(N4CC[C@@H](NC(C)(C)C)C4)nn3)cc2F)s1" on HTT mRNA?
< 100 nM

IC50 of "COc1cc(-c2cc(O)c(-c3ccc(N4CC[C@H](NC(C)(C)C)C4)nn3)cc2F)ncn1" on HTT mRNA?
100 to 1000 nM

IC50 of COc1cc(-c2ccc(-c3ccc(N4CCC(N[C@H]5C[C@H](OC)C5)C4)nn3)c(O)c2)cnn1 (some centres unmarked) on HTT mRNA?
100 to 1000 nM

IC50 of COc1cc(-c2ccc(-c3ccc(N4CCC(NC5CCC5)C4)nn3)c(O)c2)c(F)cn1 (centres unmarked) on HTT mRNA?
1000 to 10000 nM

IC50 of Cc1nc(F)c(-c2cc(O)c(-c3ccc(N4CCC(NC5CCC5)C4)nn3)cc2F)s1 (centres unmarked) on HTT mRNA?
100 to 1000 nM

IC50 of "Cc1nsc(-c2cc(O)c(-c3ccc(N4CC[C@H](NCC5CC5)C4)nn3)cc2F)n1" on HTT mRNA?
< 100 nM

IC50 of "COc1cc(-c2cc(O)c(-c3ccc(N4CC[C@@H](N[C@H]5C[C@H](F)C5)C4)nn3)cc2F)cnn1" on HTT mRNA?
< 100 nM

====

Measured IC50, listed per entry for reference.
System: Target C mRNA
Test: RT-qPCR splicing assay panel, Target C canonical junction (CJ) mRNA
Type: cell-based, human
Conditions: Homo sapiens, canonical junction (CJ) mRNA, RT-qPCR panel, Table 4A; read-out: Target C, decrease in CJ mRNA levels, IC50

Oc1cc(-c2cn[nH]c2)c(F)cc1-c1ccc(N2CC[C@@H](NC3CCC3)C2)nn1 [Compound 115] ... < 100 nM

Which IC50 value belongs to Cc1ncc(-c2ccc(-c3ccc(N4CCC(NC5CCC5)C4)nn3)nc2F)s1 (stereo not drawn) [Compound 349] ?
1000 to 10000 nM

Which IC50 value belongs to Cc1ncc(-c2cc(O)c(-c3ccc(N4CC[C@@H](N(C)C5CCC5)C4)nn3)cc2F)s1 [Compound 269] ?
< 100 nM

Which IC50 value belongs to CN(C)c1cc(-c2ccc(-c3ccc(N4CCC(NC5CCC5)C4)nn3)c(O)c2)cnn1 (stereo not drawn) [Compound 409] ?
> 10000 nM

Which IC50 value belongs to Cc1cn2nc(-c3ccc(-c4ccc(N5CCC(NC6CCC6)C5)nn4)c(O)c3)cc(C)c2n1 (stereo not drawn) [Compound 317] ?
100 to 1000 nM

Which IC50 value belongs to CC1(C)CC(Oc2ncc(-c3cc(F)c(-c4cn[nH]c4)cc3O)nn2)CC(C)(C)N1 [Compound 377] ?
100 to 1000 nM

Which IC50 value belongs to COc1cc(-c2ccc(-c3ccc(N4CCC(N[C@H]5C[C@H](O)C5)C4)nn3)c(O)c2)cnn1 (stereo partly drawn) [Compound 447] ?
100 to 1000 nM
